biological target: human GluN1/GluN2B NMDA receptors (Homo sapiens, UniProt Q05586+Q13224); assay: Cell-based calcium flux (FLIPR) assay on cloned human NR1/NR2B ion channels expressed in mammalian cells; details: standard assay; glutamate at ~EC80; FLIPR calcium flux
Sequence (Q13224 27-1484, other chains not shown): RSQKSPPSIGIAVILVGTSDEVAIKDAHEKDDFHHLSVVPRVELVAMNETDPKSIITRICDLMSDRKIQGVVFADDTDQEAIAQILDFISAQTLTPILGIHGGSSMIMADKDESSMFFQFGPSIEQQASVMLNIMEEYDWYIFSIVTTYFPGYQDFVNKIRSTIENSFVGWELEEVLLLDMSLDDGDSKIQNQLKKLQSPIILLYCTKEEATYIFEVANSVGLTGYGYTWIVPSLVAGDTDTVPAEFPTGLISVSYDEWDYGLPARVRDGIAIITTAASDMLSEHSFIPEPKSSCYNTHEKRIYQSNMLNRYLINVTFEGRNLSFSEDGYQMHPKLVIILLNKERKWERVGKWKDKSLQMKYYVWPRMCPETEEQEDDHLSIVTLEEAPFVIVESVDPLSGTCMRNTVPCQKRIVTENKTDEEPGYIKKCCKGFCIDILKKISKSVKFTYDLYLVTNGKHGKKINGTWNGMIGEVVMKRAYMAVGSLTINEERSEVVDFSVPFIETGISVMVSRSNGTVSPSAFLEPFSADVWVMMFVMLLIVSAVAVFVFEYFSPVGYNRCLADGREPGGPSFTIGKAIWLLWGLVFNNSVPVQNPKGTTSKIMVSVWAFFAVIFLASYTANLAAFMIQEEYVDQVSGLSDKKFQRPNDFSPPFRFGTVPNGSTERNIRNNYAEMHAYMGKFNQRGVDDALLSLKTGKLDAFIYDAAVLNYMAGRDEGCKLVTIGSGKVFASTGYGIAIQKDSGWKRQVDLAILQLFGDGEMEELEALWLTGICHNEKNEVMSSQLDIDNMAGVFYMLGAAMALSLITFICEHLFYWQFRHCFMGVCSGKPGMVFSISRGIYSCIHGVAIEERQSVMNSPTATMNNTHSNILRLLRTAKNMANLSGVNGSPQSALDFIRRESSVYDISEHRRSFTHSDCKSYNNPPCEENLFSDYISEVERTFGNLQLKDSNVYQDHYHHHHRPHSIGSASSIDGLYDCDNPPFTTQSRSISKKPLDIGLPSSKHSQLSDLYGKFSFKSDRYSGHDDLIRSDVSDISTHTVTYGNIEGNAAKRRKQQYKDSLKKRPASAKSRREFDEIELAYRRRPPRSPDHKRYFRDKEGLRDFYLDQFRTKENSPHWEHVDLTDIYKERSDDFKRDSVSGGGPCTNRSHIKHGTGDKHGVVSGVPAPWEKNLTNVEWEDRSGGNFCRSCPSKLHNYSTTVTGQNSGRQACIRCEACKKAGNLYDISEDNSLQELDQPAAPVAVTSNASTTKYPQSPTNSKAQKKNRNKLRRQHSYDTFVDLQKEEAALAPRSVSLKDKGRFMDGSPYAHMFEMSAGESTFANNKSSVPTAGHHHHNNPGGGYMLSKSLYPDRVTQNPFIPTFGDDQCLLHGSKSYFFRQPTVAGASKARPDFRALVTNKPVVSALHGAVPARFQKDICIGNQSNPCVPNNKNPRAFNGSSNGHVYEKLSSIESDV
I'd appreciate it if you could supply IC50 values for the items below.

Ask | GET /values?readout=IC50&item= OCc1ccnc(OCc2cn(-c3ccc(F)c(C(F)F)c3)nn2)n1
Reply | 0.036 µM

Ask | # query: IC50 of entry CC(F)(F)c1cc(-n2cc(COc3ncc(C(C)(O)C(F)(F)F)cn3)nn2)ccc1F (racemic)
Reply | 0.308 µM

Ask | Entry under review: CNc1nc(OCc2cn(-c3ccc(F)c(OC(F)F)c3)nn2)ncc1F . Reported IC50?
Reply | 0.092 µM

Ask | What value of measured IC50 is listed for Cc1cnc(OCc2cn(-c3ccnc(C(F)(F)F)c3)nn2)nc1 ?
Reply | 0.668 µM

Ask | Name the recorded IC50 for CNC(=O)c1cnc(OCc2cn(-c3ccc(F)c(C(F)(F)F)c3)nn2)nc1 .
Reply | 0.218 µM

Ask | Which IC50 reading was recorded for the molecule COC(C)(C)c1cnc(OCc2cn(-c3ccc(F)c(C(C)(F)F)c3)nn2)nc1 ?
Reply | 4.63 µM

Ask | What value of IC50 has been reported for the following molecule? Cc1cc(F)ccc1-n1cc(COc2ncc(F)cn2)nn1
Reply | 16.2 µM

Ask | I'd like to know its IC50. The molecule in question is Fc1ccc(-n2cc(COc3nccc(N4CC[C@@H](F)C4)n3)nn2)cc1OC(F)F
Reply | 0.308 µM

Ask | Report IC50 for CN(C)c1ccnc(OCc2cn(-c3ccc(F)c(C(F)F)c3)nn2)n1 please.
Reply | 0.008 µM

Ask | Using the record for CC(F)(F)c1cc(-n2cc(COc3ncc(CO)cn3)nn2)ccc1Cl , report its IC50.
Reply | 0.017 µM

Ask | For the molecule Cc1c(F)ccc(-n2cc(COc3ncc(C4CC4)cn3)nn2)c1F , what IC50 is on record?
Reply | 0.034 µM

Ask | I'd like to know its IC50. The molecule in question is CC(=O)c1cnc(OCc2cn(-c3ccc(C)c(OC(F)F)c3)nn2)nc1
Reply | 0.093 µM

Ask | Form field: reported IC50 of Cc1nccn1-c1ccnc(OCc2cn(-c3ccc(F)c(C(F)F)c3)nn2)n1
Reply | 1.58 µM

Ask | Look at this molecule and give its reported IC50. Fc1cnc(OCc2cn(-c3cccc(F)c3F)nn2)nc1
Reply | 17.5 µM

Ask | Looking for the measured IC50 of COc1ncccc1OCc1cn(-c2ccc(F)c(C(C)(F)F)c2)nn1 , can you help?
Reply | 0.476 µM

Ask | Dear colleague, I am looking for the recorded IC50 of the following molecule: Cc1cc(-n2cc(COc3ncc(Cl)c(C)n3)nn2)c(F)cc1F
Reply | 0.781 µM

Ask | What value of IC50 has been reported for the following molecule? Cc1c(F)ccc(-n2cc(COc3nccc(C4CC4)n3)nn2)c1F
Reply | 0.592 µM

Ask | Which IC50 value belongs to COCc1ccnc(OCc2cn(-c3ccc(F)c(C)c3F)nn2)n1 ?
Reply | 0.799 µM

Ask | Name the recorded IC50 for COCc1ccnc(OCc2cn(-c3ccc(F)c(OC(F)F)c3)nn2)n1 .
Reply | 0.016 µM
